# Experimental Target: bradykinin receptors in Guinea Pig Ileum (Cavia porcellus)
# Construct: describes the Guinea Pig Ileum assay used to analyze the present compounds; from tissue; host or cells: isolated guinea pig ileum
# Sequence (O70526 whole entry): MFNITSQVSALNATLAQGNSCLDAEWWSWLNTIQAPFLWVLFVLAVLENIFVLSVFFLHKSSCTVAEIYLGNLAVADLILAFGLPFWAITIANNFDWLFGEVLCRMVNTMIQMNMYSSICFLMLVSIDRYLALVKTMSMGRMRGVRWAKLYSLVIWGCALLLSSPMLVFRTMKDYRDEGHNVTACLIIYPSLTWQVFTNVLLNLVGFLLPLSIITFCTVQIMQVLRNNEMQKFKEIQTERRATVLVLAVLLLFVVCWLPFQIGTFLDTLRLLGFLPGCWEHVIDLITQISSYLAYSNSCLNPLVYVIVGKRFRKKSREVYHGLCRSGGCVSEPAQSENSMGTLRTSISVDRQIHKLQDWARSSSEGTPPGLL
# Protocol Summary: Guinea Pig Ileum functional assay
# Format: cell-based
# Condition Label: Ileum, pA2 (I=inhibitor), number in parenthesis is pA2
# From the text: 5. Guinea Pig Ileum functional assay Trautshold, Handbook of Expt. Pharmacol. Vol 25, Springer Verlag pp 53-55 (1970) describes the Guinea Pig Ileum assay used to analyze the present compounds. The Trautshold method was used without changes to the parameters. U.S. Pat. No. 4,693,993, at Column 14, line 10 gives a general description of data analysis for this assay. In this table, I=inhibitor, and numbers in parenthesis are pA2. Agonist activity are given as percent BK activity.
Reported Endpoint: Kb (nM)
Respond numerically; units are nM and should not be typed.

[ask] Tell me its Kb given N=C(N)NCCC[C@@H](N)C(=O)N[C@@H](CCCNC(=N)N)C(=O)N1CCC[C@H]1C(=O)N1C[C@H](O)C[C@H]1C(=O)NCC(=O)N[C@H](C(=O)N[C@@H](CO)C(=O)N[C@H](Cc1c(F)c(F)c(F)c(F)c1F)C(=O)N(CC(=O)N[C@@H](CCCNC(=N)N)C(=O)O)C1CCCCC1)C1Cc2ccccc2C1 [Compound B10112] as the entry.
[reply] 25.1

---

Listed here are compounds together with their documented Kb.
# Experimental Target: bradykinin receptors in Rat Uterus (Rattus norvegicus, UniProt P25023)
# Construct: describes the Rat Uterus assay used to analyze the present compounds; from tissue; host or cells: isolated rat uterus
# Sequence (P25023 1-396): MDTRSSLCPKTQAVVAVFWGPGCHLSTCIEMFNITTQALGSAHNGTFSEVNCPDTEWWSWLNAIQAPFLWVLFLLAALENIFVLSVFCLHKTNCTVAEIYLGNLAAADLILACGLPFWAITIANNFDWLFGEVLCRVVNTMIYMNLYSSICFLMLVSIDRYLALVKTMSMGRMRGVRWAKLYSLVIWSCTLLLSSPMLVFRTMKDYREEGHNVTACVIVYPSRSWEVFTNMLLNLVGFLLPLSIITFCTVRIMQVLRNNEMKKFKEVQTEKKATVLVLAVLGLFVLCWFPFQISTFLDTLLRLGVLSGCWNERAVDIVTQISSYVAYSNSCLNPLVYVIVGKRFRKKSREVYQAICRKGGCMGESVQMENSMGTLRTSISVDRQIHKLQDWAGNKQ
# Protocol Summary: Rat Uterus functional assay
# Type: cell-based
Respond numerically; units are nM and should not be typed.

[ask] Tell me its Kb given "N=C(N)NCCC[C@H](NC(=O)[C@H](CCCCN)NC(=O)[C@@H](N)CCCCN)C(=O)N1CCC[C@H]1C(=O)N1C[C@H](O)C[C@H]1C(=O)NCC(=O)N[C@H](C(=O)N[C@@H](CO)C(=O)N[C@H](Cc1c(F)c(F)c(F)c(F)c1F)C(=O)N1[C@H](C(=O)O)C[C@@H]2CCCC[C@@H]21)C1Cc2ccccc2C1" as the entry.
[reply] 63.1

---

# Experimental Target: bradykinin receptors in Rat Uterus (Rattus norvegicus)
# Construct: describes the Rat Uterus assay used to analyze the present compounds; from tissue; host or cells: isolated rat uterus
# Protocol Summary: Rat Uterus functional assay
# Format: cell-based
# Source text: 4. Rat Uterus functional assay Trautshold, Handbook of Expt. Pharmacol. […] The Trautshold method was used without changes to the parameters. U.S. Pat. No. 4,693,993, at Column 14, line 10 gives a general description of data analysis for this assay. In this table, I=inhibitor, and numbers in parenthesis are pA2. Agonist activity are given as percent BK activity.
Listed here are molecules together with their documented Kb.
Respond numerically; units are nM and should not be typed.

[ask] Tell me its Kb given "N=C(N)NCCC[C@@H](N)C(=O)N[C@@H](CCCNC(=N)N)C(=O)N1CCC[C@H]1C(=O)N1C[C@H](O)C[C@H]1C(=O)NCC(=O)N[C@H](C(=O)N[C@@H](CO)C(=O)N[C@H](Cc1c(F)c(F)c(F)c(F)c1F)C(=O)N[C@@H](Cc1c(F)c(F)c(F)c(F)c1F)C(=O)N[C@@H](CCCNC(=N)N)C(=O)O)C1Cc2ccccc2C1" as the entry.
[reply] 7.94

[ask] Tell me its Kb given "N=C(N)NCCC[C@@H](N)C(=O)N[C@@H](CCCNC(=N)N)C(=O)N1CCC[C@H]1C(=O)N1C[C@H](O)C[C@H]1C(=O)NCC(=O)N[C@H](C(=O)N[C@@H](CO)C(=O)N[C@H](Cc1c(F)c(F)c(F)c(F)c1F)C(=O)N[C@H](C(=O)N[C@@H](CCCNC(=N)N)C(=O)O)C1CCCCC1)C1Cc2ccccc2C1" as the entry.
[reply] 6.31

[ask] Tell me its Kb given "N=C(N)NCCC[C@@H](N)C(=O)N[C@@H](CCCNC(=N)N)C(=O)N1CCC[C@H]1C(=O)N1C[C@H](O)C[C@H]1C(=O)NCC(=O)N[C@H](C(=O)N[C@@H](CO)C(=O)N[C@H](Cc1c(F)c(F)c(F)c(F)c1F)C(=O)N1[C@H](C(=O)N[C@@H](CCCNC(=N)N)C(=O)O)C[C@@H]2CCCC[C@@H]21)C1Cc2ccccc2C1" as the entry.
[reply] 7.94

---

Listed here are molecules together with their documented Kb.
# Experimental Target: bradykinin receptors in Rat Uterus (Rattus norvegicus)
# Construct: describes the Rat Uterus assay used to analyze the present compounds; from tissue; host or cells: isolated rat uterus
# Protocol Summary: Rat Uterus functional assay
# Assay type: cell-based
Where a SMILES comes first, the peptide text is derived from it. [ ]: non-standard residue; d: D form. dPhe(F5) = N[C@H](Cc1c(F)c(F)c(F)c(F)c1F)C(=O)O; Igl = N[C@H](C(=O)O)C1Cc2ccccc2C1; Hyp = O=C(O)[C@@H]1C[C@@H](O)CN1; 2Thi = N[C@@H](Cc1cccs1)C(=O)O
Form entry: enter the amount, then its unit.

N=C(N)NCCC[C@@H](N)C(=O)N[C@@H](CCCNC(=N)N)C(=O)N1CCC[C@H]1C(=O)N1C[C@H](O)C[C@H]1C(=O)NCC(=O)N[C@H](C(=O)N[C@@H](CO)C(=O)N[C@@H](C(=O)N[C@@H](Cc1c(F)c(F)c(F)c(F)c1F)C(=O)N[C@@H](CCCNC(=N)N)C(=O)O)C1Cc2ccccc2C1)C1Cc2ccccc2C1 [Compound B10178] ... 31600 nM

[ask] Tell me its Kb given N=C(N)NCCC[C@@H](N)C(=O)N[C@@H](CCCNC(=N)N)C(=O)N1CCC[C@H]1C(=O)N1C[C@H](O)C[C@H]1C(=O)NCC(=O)N[C@H](C(=O)N[C@@H](CO)C(=O)N[C@H](Cc1c(F)c(F)c(F)c(F)c1F)C(=O)N(CC(=O)N[C@@H](CCCNC(=N)N)C(=O)O)C1CCCCCC1)C1Cc2ccccc2C1 [Compound B10206] as the entry.
[reply] 1.26 nM

[ask] Tell me its Kb given N=C(N)NCCC[C@@H](N)C(=O)N[C@@H](CCCNC(=N)N)C(=O)N1CCC[C@H]1C(=O)N[C@H](C(=O)NCC(=O)N[C@H](C(=O)N[C@@H](CO)C(=O)N[C@H](Cc1c(F)c(F)c(F)c(F)c1F)C(=O)N1[C@H](C(=O)N[C@@H](CCCNC(=N)N)C(=O)O)C[C@@H]2CCCC[C@@H]21)C1Cc2ccccc2C1)C1Cc2ccccc2C1 [Compound B10214] as the entry.
[reply] 6.31 nM

[ask] Tell me its Kb given CC(C)C[C@H](NC(=O)[C@@H](Cc1c(F)c(F)c(F)c(F)c1F)NC(=O)[C@H](CO)NC(=O)[C@@H](NC(=O)CNC(=O)[C@@H]1C[C@@H](O)CN1C(=O)[C@@H]1CCCN1C(=O)[C@H](CCCNC(=N)N)NC(=O)[C@H](N)CCCNC(=N)N)C1Cc2ccccc2C1)C(=O)N[C@@H](CCCNC(=N)N)C(=O)O [Compound B10174] (H-[dR]RP[Hyp]G[Igl]S[dPhe(F5)]LR-OH; N-terminus and C-terminus assumed) as the entry.
[reply] 7.94 nM

[ask] Tell me its Kb given N=C(N)NCCC[C@@H](N)C(=O)N[C@@H](CCCNC(=N)N)C(=O)N1CCC[C@H]1C(=O)N1C[C@H](O)C[C@H]1C(=O)NCC(=O)N[C@@H](Cc1cccs1)C(=O)N[C@@H](CO)C(=O)N[C@H](Cc1c(F)c(F)c(F)c(F)c1F)C(=O)N[C@@H](Cc1c(F)c(F)c(F)c(F)c1F)C(=O)N[C@@H](CCCNC(=N)N)C(=O)O [Compound B10166] as the entry.
[reply] 7.94 nM

[ask] Tell me its Kb given CC(C)C[C@H](NC(=O)[C@@H](Cc1c(F)c(F)c(F)c(F)c1F)NC(=O)[C@H](CO)NC(=O)[C@H](Cc1cccs1)NC(=O)CNC(=O)[C@@H]1C[C@@H](O)CN1C(=O)[C@@H]1CCCN1C(=O)[C@H](CCCNC(=N)N)NC(=O)[C@H](N)CCCNC(=N)N)C(=O)N[C@@H](CCCNC(=N)N)C(=O)O [Compound B10172] (H-[dR]RP[Hyp]G[2Thi]S[dPhe(F5)]LR-OH; N-terminus and C-terminus assumed) as the entry.
[reply] 5.01 nM
